Target: T1, CD40 ligand (UniProt P29965 108-261, limits assumed)
T1 construct: Used immobilised, soluble, or biotinylated on streptavidin beads; also called CD154; soluble CD40L
T1 sequence (looked up): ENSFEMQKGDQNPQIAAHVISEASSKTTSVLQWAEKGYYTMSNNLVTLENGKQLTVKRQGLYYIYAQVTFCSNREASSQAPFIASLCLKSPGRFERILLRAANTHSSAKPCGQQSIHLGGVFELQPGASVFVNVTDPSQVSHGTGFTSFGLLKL
Assay: Alphascreen proximity assay, inhibition of CD40L-CD40
pEC50: −log10 of the molar value. Positions of bridges follow the written chain, without caps; N, C: chain ends. Chains are numbered I, II in the order given. No end group written: not given here.
Use Criterion met when the recorded pEC50 is no lower than 10; use Criterion not met when it is lower.

These solved cases illustrate the format of a correct answer.
Cys_M1_6S-Cys_M1_9S heterodimer (disulfide I:1-II:1, also called 6-9 dimer) peptide 1: CHPFSIKNVFSIWNFFSVY peptide 2: CPPRYNLFFLFRFYSSFRRDYLYF | Criterion met
CHPFSIKNVFSIWNFFSVY [Cys_M1_6S] | Criterion not met
Cys_M1_6S-Cys_M1_189S heterodimer (disulfide I:1-II:1, also called 6-189 dimer) peptide 1: CHPFSIKNVFSIWNFFSVY peptide 2: CLLLFFFSPPFSIFSFSLTTLS | Criterion met
PPRYNLFFLFRFYSSFRRDYLYF (Cys-to-Ser derivative; also called M1-9Sa) [CD40L M1_9s] | Criterion not met

Next item in the queue.
Enquiry: Please tell me: is the binder CHPFSIKNVFSIWNFFSVY (also: homodimer: disulfide between the N-terminal cysteines of two chains, also called 6-6 dimer; homodimer of the Phylomer peptide M1-6) [Cys_M1_6S homodimer] at or over 10 in terms of pEC50?
Return: Criterion met
